Assay System: T1, LPETG (SEQ ID NO: 4) substrate (not fully specified)
T1 chain: LPETG
Measure Name: Km LPETG (µM)
Respond with the bare value in µM.

srtA D160N (protein) MQAKPQIPKDKSKVAGYIEIPDADIKEPVYPGPATPEQLNRGVSFAEENESLDDQNISIAGHTFIDRPNYQFTNLKAAKKGSMVYFKVGNETRKYKMTSIRNVKPTDVEVLDEQKGKDKQLTLITCDDYNEKTGVWEKRKIFVATEVKLEHHHHHH
3700
P94S/D160N/K196T (protein) MQAKPQIPKDKSKVAGYIEIPDADIKEPVYPGPATSEQLNRGVSFAEENESLDDQNISIAGHTFIDRPNYQFTNLKAAKKGSMVYFKVGNETRKYKMTSIRNVKPTDVEVLDEQKGKDKQLTLITCDDYNEKTGVWETRKIFVATEVKLEHHHHHH
560

Value of measured Km LPETG for the entry wild type S. aureus sortase A (truncated, His tagged) (protein) MQAKPQIPKDKSKVAGYIEIPDADIKEPVYPGPATPEQLNRGVSFAEENESLDDQNISIAGHTFIDRPNYQFTNLKAAKKGSMVYFKVGNETRKYKMTSIRDVKPTDVEVLDEQKGKDKQLTLITCDDYNEKTGVWEKRKIFVATEVKLEHHHHHH : 7600

Data point: P94S/D165A (clone 4.3) (protein) MQAKPQIPKDKSKVAGYIEIPDADIKEPVYPGPATSEQLNRGVSFAEENESLDDQNISIAGHTFIDRPNYQFTNLKAAKKGSMVYFKVGNETRKYKMTSIRDVKPTAVEVLDEQKGKDKQLTLITCDDYNEKTGVWEKRKIFVATEVKLEHHHHHH ; Km LPETG = 1100

Form field Km LPETG, entry P94S/D160N/D165A (protein) MQAKPQIPKDKSKVAGYIEIPDADIKEPVYPGPATSEQLNRGVSFAEENESLDDQNISIAGHTFIDRPNYQFTNLKAAKKGSMVYFKVGNETRKYKMTSIRNVKPTAVEVLDEQKGKDKQLTLITCDDYNEKTGVWEKRKIFVATEVKLEHHHHHH : 510

Form field Km LPETG, entry srtA D165A (protein) MQAKPQIPKDKSKVAGYIEIPDADIKEPVYPGPATPEQLNRGVSFAEENESLDDQNISIAGHTFIDRPNYQFTNLKAAKKGSMVYFKVGNETRKYKMTSIRDVKPTAVEVLDEQKGKDKQLTLITCDDYNEKTGVWEKRKIFVATEVKLEHHHHHH : 3600

The recorded Km LPETG for entry P94R/D160N/D165A/K190E/K196T pentamutant sortase A (protein) MQAKPQIPKDKSKVAGYIEIPDADIKEPVYPGPATREQLNRGVSFAEENESLDDQNISIAGHTFIDRPNYQFTNLKAAKKGSMVYFKVGNETRKYKMTSIRNVKPTAVEVLDEQKGKDKQLTLITCDDYNEETGVWETRKIFVATEVKLEHHHHHH equals 230
